Kindly supply the reported Ratio IC50 values for the records listed here.
# Assay Notes: Selectivity index, ratio of IC50 for BuChE in equine serum to IC50 for electric eel AChE
Numbers only.

[[record]]
compound = "CCN(CC)CCCOc1ccc(CC2NCCc3cc(OC)c(OC)cc32)cc1 (centres undefined)"
assay_metric = "Ratio IC50"
recorded_measurement = 1.57


# return Ratio IC50 for each item in the list
1. COc1cc2c(cc1OC)C(Cc1ccc(OCCCCCCN3CCC(O)(Cc4ccccc4)CC3)cc1)NCC2 (centres undefined)
2. COc1cc2c(cc1OC)C(Cc1ccc(OCCCCCCN3CCN(Cc4ccccc4)CC3)cc1)NCC2 (centres undefined)
3. CCN(CC)CCCCOc1ccc(CC2NCCc3cc(OC)c(OC)cc32)cc1 (centres undefined)
4. CCN(CC)CCCCCOc1ccc(CC2NCCc3cc(OC)c(OC)cc32)cc1 (centres undefined)
5. CCN(CC)CCCCCCCCOc1ccc(CC2NCCc3cc(OC)c(OC)cc32)cc1 (centres undefined)
6. COc1cc2c(cc1OC)C(Cc1ccc(OCCCCCCN(C)C)cc1)NCC2 (centres undefined)

1. 0.31
2. 0.2
3. 2.02
4. 1.46
5. 3.17
6. 2.75

# return Ratio IC50 for each item in the list
1. CCN(CC)CCCCCCCOc1ccc(CC2NCCc3cc(OC)c(OC)cc32)cc1 (centres undefined)
2. COc1cc2c(cc1OC)C(Cc1ccc(OCCCCCCN3CCCCC3C)cc1)NCC2 (centres undefined)

[1.96, 3.29]
